The measured values listed here are drawn from patent US20250114389A1.

Test system: Calu3 cells
study-conditions: read-out: Cytotoxicity CC50 Calu3
property: CC50 (µM)

> print(dat)
                                   compound  recorded.result
1  C[C@@H]1C[C@@H]([C@H](O)CC2CC(=O)NC(=O)C2)C(=O)[C@@H](C)C1 [Cyclohexamide]               10

---

Tested on: SARS-CoV-2
protocol-details: Anti-SARS-CoV-2 activity in Calu3 ALI culture
Type: cell-based
study-conditions: Severe acute respiratory syndrome coronavirus 2, Calu-3; Calu3 air-liquid interface
pEC50: −log10 of the molar value.

compound	pEC50
N#C[C@@]1(n2ccc(N)nc2=O)O[C@H](CO)[C@@H](O)[C@H]1O	5.89
CCC(CC)COC(=O)[C@H](C)N[P@](=O)(OC[C@H]1O[C@@](C#N)(c2ccc3c(N)ncnn23)[C@H](O)[C@@H]1O)Oc1ccccc1 [Remdesivir, reference compound]	6.05
